B1: SLC2A12 (parent)
chain: TRIMIGLTLVFFVQITGQPNILFY

Variants of: B1
Assay: protein stability index of a GFP-peptide fusion (GPS, HEK-293T) (PSI 1-6); higher = more stable;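 note: lentivirally expressed fusions sorted by FACS into six bins by GFP to DsRed ratio, PSI derived from sequencing read proportions per bin multiplied by bin number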
Conditions: c terminus: a fixed tail appended
measured_quantity: protein stability index

[[record]]
mutation_list = "V10A"
recorded_value = 3.99

[[record]]
mutation_list = "I15P"
recorded_value = 3.74

[[record]]
mutation_list = "L7P"
recorded_value = 2.96

[[record]]
mutation_list = "M4G"
recorded_value = 2.99

[[record]]
mutation_list = "T16Y"
recorded_value = 3.48

[[record]]
mutation_list = "L9Q"
recorded_value = 1.7

[[record]]
mutation_list = "P19R"
recorded_value = 3.63

[[record]]
mutation_list = "V13K"
recorded_value = 2.19

[[record]]
mutation_list = "I3T"
recorded_value = 1.84

[[record]]
mutation_list = "V10M"
recorded_value = 3.53

[[record]]
mutation_list = "F12E"
recorded_value = 2.77

[[record]]
mutation_list = "I21T"
recorded_value = 3.91

[[record]]
mutation_list = "Q18E"
recorded_value = 4.17

[[record]]
mutation_list = "Q18W"
recorded_value = 3.71

[[record]]
mutation_list = "Q18M"
recorded_value = 3.21

[[record]]
mutation_list = "P19S"
recorded_value = 2.39

[[record]]
mutation_list = "I15M"
recorded_value = 2.5

[[record]]
mutation_list = "G17Q"
recorded_value = 2.8

[[record]]
mutation_list = "V10P"
recorded_value = 2.51

[[record]]
mutation_list = "L7I"
recorded_value = 2.63

[[record]]
mutation_list = "Q14R"
recorded_value = 2.38

[[record]]
mutation_list = "P19G"
recorded_value = 2.96

[[record]]
mutation_list = "F11L"
recorded_value = 2.5

[[record]]
mutation_list = "V13E"
recorded_value = 2.15

[[record]]
mutation_list = "R2T"
recorded_value = 2.27

[[record]]
mutation_list = "L22C"
recorded_value = 3.96

[[record]]
mutation_list = "L9G"
recorded_value = 2.8

[[record]]
mutation_list = "L22I"
recorded_value = 1.48

[[record]]
mutation_list = "I3M"
recorded_value = 3.1

[[record]]
mutation_list = "I3A"
recorded_value = 2.59

[[record]]
mutation_list = "L7A"
recorded_value = 3.65

[[record]]
mutation_list = "L9A"
recorded_value = 3.04

[[record]]
mutation_list = "G17P"
recorded_value = 3.68

[[record]]
mutation_list = "Q18G"
recorded_value = 3.24

[[record]]
mutation_list = "R2A"
recorded_value = 3.31

[[record]]
mutation_list = "F23S"
recorded_value = 2.97

[[record]]
mutation_list = "Q14G"
recorded_value = 3.68

[[record]]
mutation_list = "V13T"
recorded_value = 3.18

[[record]]
mutation_list = "F12P"
recorded_value = 4.16

[[record]]
mutation_list = "I5M"
recorded_value = 1.77

[[record]]
mutation_list = "M4L"
recorded_value = 2.64

[[record]]
mutation_list = "M4C"
recorded_value = 4.43

[[record]]
mutation_list = "T1M"
recorded_value = 1.44

[[record]]
mutation_list = "Y24V"
recorded_value = 4.22

[[record]]
mutation_list = "M4Y"
recorded_value = 2.6

[[record]]
mutation_list = "F11C"
recorded_value = 3.27

